B1: TPR 5TU (parent)
chain: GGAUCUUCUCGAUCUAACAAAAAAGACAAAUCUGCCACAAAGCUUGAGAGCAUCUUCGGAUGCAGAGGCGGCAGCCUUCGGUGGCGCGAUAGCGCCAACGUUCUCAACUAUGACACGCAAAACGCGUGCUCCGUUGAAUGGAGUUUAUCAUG

# Variants of: B1
# experiment: polymerase ribozyme fitness, log enrichment relative to wild type (log ratio); higher = more active; in vitro selection for triplet polymerase activity
Fewer inactive variants are shown than the library holds.
Below: a set of entries, each annotated with reported polymerase ribozyme fitness (log ratio).

Field: example entries. Status: answers known.
* G46A A91G G136U | ≤ -4.2
* C85A G141C | -1.46

Bench note: what polymerase ribozyme fitness (log ratio) did U45G C57A show?
0.374

Please give the measured polymerase ribozyme fitness (log ratio) for this variant: A73C C95U
-2.49

Item C36A G84A has what recorded polymerase ribozyme fitness (log ratio)?
-3.37

Reported polymerase ribozyme fitness (log ratio), variant G86A U90C U102C A137G : ____
≤ -4.2
